studyTarget: T1, 4H2907-AA
T1 chain: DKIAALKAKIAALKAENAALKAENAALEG
methodNotes: two-hybrid library CCmax;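 note: natural log of median RNA to DNA barcode read ratio; higher means stronger binding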
assaySetup: mean of both orientations
metricName: interaction score

- binder: "DENAALEAENAALEAEIAALEAEIAALEG [4H1153-AA]"
  testValue: -1.67

a = DKIAALEAENAALEAENAALEAKIAALKG [4H2198-AA]
b = DENAALKAKIAALEAKNAALEAKIAALEG [4H1845-AA]
c = DKIAALKAEIAALEAKNAALKAENAALKG [4H2620-AA]
Order the records so the highest interaction score appears first and the lowest last. Give your ranking as a list of the labels in the requested order.
c, a, b
